Data provenance: PubChem BioAssay AID1159580

- test description: chemical genetic growth profiling, strain panel (AID 1159580);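 further: tested at 20 µM; growth read once vehicle control cultures reached saturation at 30 °C; 1 = growth at the plate median or of vehicle wells; lower values mean less growth of the strain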
- assay conditions: S. cerevisiae deletion strains, growth OD, locus YKR091W, strain srl3, stronger effect = lower value
About 2,000 (36%) of roughly 5,500 compounds were called active. Another 18% or so got no clear call; they are omitted. This is one part of the list.
Kindly state normalized growth for each of the entries shown.
Returns: the value as a bare number; no unit string appended.

## Input State the recorded normalized growth for this entry: `CN(C)c1ccc(C(=C2C=CC(=[N+](C)C)C=C2)c2ccc(N(C)C)cc2)cc1`
## Output 0.536

## Input State the recorded normalized growth for this entry: `CC(=O)O[C@H]1[C@@H]2[C@@H](OC(=O)Cc3ccccc3)[C@@H](C)C[C@]2(OC(C)=O)C(=O)/C(C)=C/[C@H]2[C@H](CC[C@@]13CO3)C2(C)C`
## Output 0.985

## Input State the recorded normalized growth for this entry: `S=c1nc[nH]c2nc[nH]c12`
## Output 0.996

## Input State the recorded normalized growth for this entry: O=C(O)C1(O)C[C@@H](O)C(O)[C@H](O)C1 (some centres not stated)
## Output 0.986

## Input State the recorded normalized growth for this entry: `COc1ccc2c(c1)OCc1c-2oc2cc(OC)ccc12`
## Output 0.987

## Input State the recorded normalized growth for this entry: `CC1=C(C/C=C(\C)CCC[C@H](C)CCC[C@H](C)CCCC(C)C)C(=O)c2ccccc2C1=O`
## Output 0.985

## Input State the recorded normalized growth for this entry: CC(=O)OCC(=O)[C@H]1CCC2C3CCC4=CC(=O)CC[C@]4(C)C3CC[C@@]21C (some centres not stated)
## Output 0.98

## Input State the recorded normalized growth for this entry: CC1=C(CC(=O)O)c2cc(F)ccc2/C1=C\c1ccc(S(C)=O)cc1 (configuration not stated)
## Output 1.02

## Input State the recorded normalized growth for this entry: `COc1cc(/C=C/C(=O)/C=C(O)/C=C/c2ccc(O)c(OC)c2)ccc1O`
## Output 0.304

## Input State the recorded normalized growth for this entry: `CS(=O)(=O)c1ccc(C2=C(c3ccccc3)C(=O)OC2)cc1`
## Output 0.961

## Input State the recorded normalized growth for this entry: `COc1cc(O)c(C(=O)/C=C/c2ccc(OC)c(O)c2)c(OC)c1`
## Output 1.01

## Input State the recorded normalized growth for this entry: `CCOC(=O)C(C)(C)Oc1ccc(Cl)cc1`
## Output 0.978

## Input State the recorded normalized growth for this entry: `COc1ccc2c(C)cc(=O)oc2c1`
## Output 0.987

## Input State the recorded normalized growth for this entry: `CC1(C)OC(=O)NC1=O`
## Output 1.01

## Input State the recorded normalized growth for this entry: N=c1ccn2c(n1)O[C@@H]1C2O[C@H](CO)[C@H]1O (some centres not stated)
## Output 0.99

## Input State the recorded normalized growth for this entry: `COc1ccc2c3c1O[C@H]1C[C@@H](O)C=C[C@@]31CCN(C)C2`
## Output 0.99

## Input State the recorded normalized growth for this entry: CC(=O)OCC(=O)[C@@]1(O)CCC2C3CCC4=CC(=O)CC[C@]4(C)C3C(=O)C[C@@]21C (some centres not stated)
## Output 0.974

## Input State the recorded normalized growth for this entry: `CC(C)(O)[C@@H]1[C@H]2OC(=O)[C@@H]1[C@]1(O)C[C@H]3O[C@]34C(=O)O[C@H]2[C@]14C`
## Output 1

## Input State the recorded normalized growth for this entry: `CCCCCCCCCCCCCCCC[N+](C)(C)C`
## Output 0.0569

## Input State the recorded normalized growth for this entry: `COC1=C(OC)C(=O)C(C/C=C(\C)CC/C=C(\C)CC/C=C(\C)CC/C=C(/C)CC/C=C(\C)CC/C=C(\C)CC/C=C(\C)CC/C=C(\C)CC/C=C(\C)CCC=C(C)C)=C(C)C1=O`
## Output 0.98

## Input State the recorded normalized growth for this entry: `COc1cc(NS(=O)(=O)c2ccc(N)cc2)nc(OC)n1`
## Output 0.982

## Input State the recorded normalized growth for this entry: `CN(C)C(=S)SSC(=S)N(C)C`
## Output 0.058
